# protocol details: Solubility in pH 1.0 buffer
# Format: physicochemical
parameter measured: solubility

Query: Please report the recorded solubility for CCN(CC)C(=O)[C@@H]1C=C2c3cccc4[nH]cc(c34)C[C@H]2N(C(=O)Nc2ccccc2)C1 .
Result: 5 µg/mL

====

# protocol details: Inhibition of adrenergic alpha1 receptor
parameter measured: IC50 (µM)
Only the number, expressed in µM, is required.

Query: Please report the recorded IC50 for CCN(CC)C(=O)[C@@H]1C=C2c3cccc4[nH]cc(c34)C[C@H]2N(C(=O)Nc2ccccc2)C1 .
Result: 4.03

====

# target: Cytochrome P450 3A4 (Homo sapiens)
# Sequence (P08684 whole entry): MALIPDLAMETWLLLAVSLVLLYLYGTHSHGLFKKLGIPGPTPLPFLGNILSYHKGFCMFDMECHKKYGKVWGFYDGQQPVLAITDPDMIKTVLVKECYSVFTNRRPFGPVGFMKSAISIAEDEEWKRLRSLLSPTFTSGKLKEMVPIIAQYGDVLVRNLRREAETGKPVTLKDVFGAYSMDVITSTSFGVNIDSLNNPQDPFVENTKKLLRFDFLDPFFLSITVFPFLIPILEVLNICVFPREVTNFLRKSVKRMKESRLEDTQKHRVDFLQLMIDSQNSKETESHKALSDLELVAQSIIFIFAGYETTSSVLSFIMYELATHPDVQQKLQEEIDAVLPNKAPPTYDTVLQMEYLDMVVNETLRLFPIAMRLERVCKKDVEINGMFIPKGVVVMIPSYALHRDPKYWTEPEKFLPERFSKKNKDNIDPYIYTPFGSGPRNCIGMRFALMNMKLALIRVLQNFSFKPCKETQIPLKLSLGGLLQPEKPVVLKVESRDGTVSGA
parameter measured: IC50

Query: Request: IC50, test system Cytochrome P450 3A4 (Homo sapiens), entry CCN(CC)C(=O)[C@@H]1C=C2c3cccc4[nH]cc(c34)C[C@H]2N(C(=O)Nc2ccccc2)C1
Result: > 10 µM

====

Catalogue of pIC50 values
# target: C-X-C chemokine receptor type 3 (Homo sapiens)
# protocol details: Displacement of [125I]I-TAC from human CXCR3 expressed in CHO cells by scintillation proximity assay
# Format: cell-based
Formally, pIC50 is defined as -log10 of the concentration c, with c in mol/L.

Worked examples, 5 compounds total:
Query: Please report the recorded pIC50 for CCN(CC)C(=O)[C@@H]1C=C2c3cccc4[nH]cc(c34)C[C@H]2N(C(=O)Nc2ccc(C)cc2)C1 .
Result: 6.50

Query: Please report the recorded pIC50 for CCN(CC)C(=O)[C@@H]1C=C2c3cccc4[nH]cc(c34)C[C@H]2N(C(=O)Oc2ccccc2)C1 .
Result: 6.10

Query: Please report the recorded pIC50 for CCN(CC)C(=O)[C@@H]1CC2c3cccc4[nH]cc(c34)C[C@H]2N(C(=O)Nc2ccccc2)C1 (stereo partly drawn) .
Result: 5.28

Query: Please report the recorded pIC50 for CCN(CC)C(=O)[C@@H]1C=C2c3cccc4[nH]cc(c34)C[C@H]2N(C(=O)Nc2cccc(C)c2)C1 .
Result: 6.64

Query: Please report the recorded pIC50 for CCN(CC)C(=O)[C@@H]1C=C2c3cccc4[nH]cc(c34)C[C@H]2N(C(=O)Nc2ccccc2)C1 .
Result: 7.27

---
Query: Please report the recorded pIC50 for CCN(CC)C(=O)[C@@H]1C=C2c3cccc4[nH]cc(c34)C[C@H]2N(C(=O)Nc2cc(OC)c(OC)c(OC)c2)C1 .
Result: 5.52

Query: Please report the recorded pIC50 for CCN(CC)C(=O)[C@@H]1C=C2c3cccc4[nH]cc(c34)C[C@H]2N(C(=O)Nc2ccncc2)C1 .
Result: 5.70

====

# target: Cytochrome P450 2C9 (Homo sapiens)
# Sequence (P11712 whole entry): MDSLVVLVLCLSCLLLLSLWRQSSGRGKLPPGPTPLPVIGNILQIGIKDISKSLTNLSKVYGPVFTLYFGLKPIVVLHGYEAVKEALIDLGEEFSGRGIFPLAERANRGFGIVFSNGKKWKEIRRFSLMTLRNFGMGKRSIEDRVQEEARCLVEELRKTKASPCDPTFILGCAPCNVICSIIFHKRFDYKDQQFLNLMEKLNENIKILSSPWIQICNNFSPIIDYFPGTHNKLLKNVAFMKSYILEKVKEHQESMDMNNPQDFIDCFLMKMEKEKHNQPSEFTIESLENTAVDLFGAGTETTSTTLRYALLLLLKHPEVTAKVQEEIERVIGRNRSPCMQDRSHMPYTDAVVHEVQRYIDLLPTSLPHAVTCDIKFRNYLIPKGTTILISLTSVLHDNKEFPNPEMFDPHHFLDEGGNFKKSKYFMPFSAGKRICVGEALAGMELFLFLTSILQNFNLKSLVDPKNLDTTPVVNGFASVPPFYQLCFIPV
pIC50: −log10 of the molar value.
parameter measured: pIC50

Query: Request: pIC50, test system Cytochrome P450 2C9 (Homo sapiens), entry CCN(CC)C(=O)[C@@H]1C=C2c3cccc4[nH]cc(c34)C[C@H]2N(C(=O)Nc2ccccc2)C1
Result: < 5.00

====

Catalogue of pIC50 values
# target: C-X-C chemokine receptor type 3 (Homo sapiens, UniProt P49682)
# Sequence (P49682 whole entry): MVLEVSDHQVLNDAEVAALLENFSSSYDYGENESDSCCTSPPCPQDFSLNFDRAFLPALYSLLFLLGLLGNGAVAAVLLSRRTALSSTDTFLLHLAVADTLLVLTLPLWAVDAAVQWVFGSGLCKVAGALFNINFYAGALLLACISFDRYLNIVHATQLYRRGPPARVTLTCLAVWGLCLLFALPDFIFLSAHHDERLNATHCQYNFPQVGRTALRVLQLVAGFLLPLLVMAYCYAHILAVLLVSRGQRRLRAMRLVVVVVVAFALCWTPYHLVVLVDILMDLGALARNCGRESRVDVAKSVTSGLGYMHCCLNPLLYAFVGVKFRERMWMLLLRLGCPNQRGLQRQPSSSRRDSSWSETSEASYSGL
# protocol details: Displacement of [125I]I-TAC from human CXCR3 expressed in CHO cells by scintillation proximity assay
# Type: cell-based
Formally, pIC50 is defined as -log10 of the concentration c, with c in mol/L.

Worked examples, 2 molecules total:
Query: Please report the recorded pIC50 for CCN(CC)C(=O)[C@@H]1C=C2c3cccc4[nH]cc(c34)C[C@H]2N(C(=O)Nc2ccccc2C)C1 .
Result: 6.84

Query: Please report the recorded pIC50 for CCN(CC)C(=O)[C@@H]1C=C2c3cccc4[nH]cc(c34)C[C@H]2N(C(=O)NC2CCCCC2)C1 .
Result: 6.75

---
Query: Please report the recorded pIC50 for CCN(CC)C(=O)[C@@H]1C=C2c3cccc4[nH]cc(c34)C[C@H]2N(C(=O)Nc2ccccn2)C1 .
Result: 6.37

Query: Please report the recorded pIC50 for CCN(CC)C(=O)[C@@H]1C=C2c3cccc4[nH]cc(c34)C[C@H]2N(C(=O)Nc2cccnc2)C1 .
Result: 6.55
